- System: Mycobacterium tuberculosis strain H37Rv
- ASSAY SUMMARY: microplate Alamar blue assay (MABA)
- Assay type: cell-based
- STUDY CONDITIONS: Mycobacterium tuberculosis, H37RV, M. tuberculosis H37Rv; lowest concentration effecting 90% inhibition
PARAMETER MEASURED: MIC (µg/mL)

| COMPOUND | PARAMETER MEASURED | UNIT SYMBOL | VAL |
| --- | --- | --- | --- |
| Cc1c(C(N)=O)[n+]([O-])c2cc(C(=O)OC(C)C)ccc2[n+]1[O-] [Compound T-108] | MIC | µg/mL | 22.5 |
| CCOC(=O)c1ccc2c(c1)[n+]([O-])c(C(C)=O)c(C(F)(F)F)[n+]2[O-] [Compound T-006] | MIC | µg/mL | 0.29 |
| CO[C@H]1/C=C/O[C@@]2(C)Oc3c(C)c(O)c4c(O)c(c(/C=N/N5CCN(C)CC5)c(O)c4c3C2=O)NC(=O)/C(C)=C\C=C\[C@H](C)[C@H](O)[C@@H](C)[C@@H](O)[C@@H](C)[C@H](OC(C)=O)[C@@H]1C [RMP, rifampicin, reference compound] | MIC | µg/mL | 0.03 |
| COC(=O)c1ccc2c(c1)[n+]([O-])c(C(=O)Nc1ccccc1)c(C)[n+]2[O-] [Compound T-012] | MIC | µg/mL | 1.07 |
